- Assay comment: Differential scanning calorimetry (VP-DSC) of DSPC liposomes (MLVs) with drugs
- Assay type: physicochemical
- Design: unit not given here
- Assay setup: pH 7.0; van't Hoff's enthalpy calculated from DSC measurements
Please provide measured ΔHv for the entries that follow.

COc1cccc2c1C(=O)c1c(O)c3c(c(O)c1C2=O)C[C@@](O)(C(=O)CO)C[C@@H]3O[C@H]1C[C@H](N)[C@H](O)[C@H](C)O1: 1437
CC[C@]1(O)C[C@H]2CN(CCc3c([nH]c4ccccc34)[C@@](C(=O)OC)(c3cc4c(cc3OC)N(C=O)[C@H]3[C@@](O)(C(=O)OC)[C@H](OC(C)=O)[C@]5(CC)C=CCN6CC[C@]43[C@@H]65)C2)C1: 496
CC(=O)O[C@H]1C(=O)[C@@]2(C)[C@H]([C@H](OC(=O)c3ccccc3)[C@]3(O)C[C@H](OC(=O)[C@H](O)[C@@H](NC(=O)c4ccccc4)c4ccccc4)C(C)=C1C3(C)C)[C@]1(OC(C)=O)CO[C@@H]1C[C@@H]2O: 741

Turning now to a further record.
Item under review: CC[C@@]1(O)C(=O)OCc2c1cc1n(c2=O)Cc2c-1nc1ccccc1c2CCNC(C)C . Reported ΔHv? 1308

meta.source: patent US20050107959A1
